For each entry below, report its melting point value.

[[record]]
structure_as_smiles = "COc1ccc(-n2cnnc2-c2cc(OC)c(OC)c(OC)c2)cc1O"
measurement_name = "melting point"
meas_value = "197 to 198 °C"

[[record]]
structure_as_smiles = "COc1cc(-c2nncn2-c2ccc3c(ccn3C)c2)cc(OC)c1OC"
measurement_name = "melting point"
meas_value = "157 to 159 °C"

[[record]]
structure_as_smiles = "COc1cc(-c2nncn2-c2ccc(N(C)C)cc2)cc(OC)c1OC"
measurement_name = "melting point"
meas_value = "145 to 147 °C"


For every item in the list below, what is its measured melting point?
1. COc1ccc(-n2cnnc2-c2cc(OC)c(OC)c(OC)c2)cc1F
2. COc1ccc(-n2cnnc2-c2cc(OC)c(OC)c(OC)c2)cc1

Marked response:
1. 151 to 152 °C
2. 163 to 165 °C
